test: Pharmacokinetics test using mice; format: in vivo; settings: male, Balb/C, mouse, plasma, IV (1 mg/kg)

# smiles_string, AUC(0-inf), µg·h/mL
measured = [
    ("Nc1ncc(-c2cc(-c3cnn(CC(F)(F)F)c3)ccc2F)nc1C(=O)N[C@@H]1CNC[C@@H](F)C1", 0.298),
]

* * *

Assay: Pharmacokinetics test using mice
Type: in vivo
Conditions: male, Balb/C, mouse, plasma, IV (1 mg/kg)
Protocol: 6 to 8 week-old male Balb/C mice weighing 22-29 g were acclimatized for about 1 week, and then 12 mice for each group were divided into an intravenous administration group and an oral administration group and used in the experiment. The mice were fasted before administration of the compound and were allowed to drink water ad libitum. Feed was provided 2 hours after administration of the compound. […]

# compound, unit_text, half-life
rows = [
    ("Nc1ncc(-c2cc(-c3cnn(CC(F)(F)F)c3)ccc2F)nc1C(=O)N[C@@H]1CNC[C@@H](F)C1 [Example 9]", "h", 1.36),
]
